// provenance: the supplement of paper PMC9170038

test system: MS2 coat protein; assay: apparent KD of MS2 coat protein; designed switch direction (-1 OFF switch, 1 ON switch): 1; higher = weaker reporter binding; details: input ligand: microRNA oligo, concentration not stated
MEASURED PROPERTY: apparent KD of MS2 coat protein

| MONOMER SEQUENCE | VALUE MEASURED |
| --- | --- |
| AAGAAACAUGAGGAUCACCCAUGUAGAAAUAUGGGAGGAUAUACGAAGACGAAAGUCAAAGUAGAAGGCCUAAAAG [Mat - Same State 1 - Eli mod - D107] (Eterna round: R96, puzzle: Same State 1) | 54 nM |
| AGAAAACAUGAGGAUCACCCAUGUAGAAAUAUGGGAGGAUAUACAAAGACGAAAGUCGAGGUAGAAGGCCUAAAGA [Mat - Same State 1 - Meechl mod - D122] (Eterna round: R96, puzzle: Same State 1) | 77.9 nM |
| UUCUCAUUUACAUGAGGAUCACCCAUGUUUUUAUGUCAGAGAUAGGAUAUAGUUCUCUCGUUUUUCUAGAAGGAUCUUUUUAUU [JR_SSNG3_Sub086] (Eterna round: R96, puzzle: Same State NG 3) | 41.3 nM |
| UUUAUAUUCAGAGGAUAUUAAUGUUGUAUAAUAUAAGAAGGCUGUUUGUUUUGUAAAGUUAUUAUACAUGAGGAUCACCCAUGU [JR_SSNG1_Sub082] (Eterna round: R96, puzzle: Same State NG 1) | 15.5 nM |
